Data origin: ChEMBL document CHEMBL5291721

molecular target: 5-hydroxytryptamine receptor 2B (Homo sapiens, UniProt P41595); assay type: functional, cell-based; note: assay procedure not described here
Sequence (P41595 whole entry): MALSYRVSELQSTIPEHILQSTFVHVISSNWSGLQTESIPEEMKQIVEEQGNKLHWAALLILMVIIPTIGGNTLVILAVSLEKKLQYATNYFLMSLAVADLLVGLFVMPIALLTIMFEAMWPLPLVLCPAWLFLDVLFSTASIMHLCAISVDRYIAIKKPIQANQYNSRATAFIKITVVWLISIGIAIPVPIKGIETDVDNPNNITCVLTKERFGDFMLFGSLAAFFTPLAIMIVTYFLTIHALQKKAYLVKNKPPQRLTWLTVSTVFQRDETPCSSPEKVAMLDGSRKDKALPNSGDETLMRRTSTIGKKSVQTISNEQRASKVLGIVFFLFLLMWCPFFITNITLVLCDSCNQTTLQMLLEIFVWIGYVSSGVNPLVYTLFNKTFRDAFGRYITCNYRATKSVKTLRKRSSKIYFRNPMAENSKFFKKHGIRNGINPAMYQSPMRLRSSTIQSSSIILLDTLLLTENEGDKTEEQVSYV
parameter: AC50

compound="O=C1CN=C(c2ccccc2Cl)c2cc([N+](=O)[O-])ccc2N1 [CLONAZEPAM]" parameter=AC50 result="> 10 µM"

For each listed entry, give its AC50.
1. COC(=O)c1ccc2c(c1)NC(=O)/C2=C(\Nc1ccc(N(C)C(=O)CN2CCN(C)CC2)cc1)c1ccccc1 [NINTEDANIB]
2. COc1ccc(-n2nc(C(N)=O)c3c2C(=O)N(c2ccc(N4CCCCC4=O)cc2)CC3)cc1 [APIXABAN]
3. C[C@]12C=CC(=O)C=C1CC[C@@H]1[C@@H]2[C@@H](O)C[C@@]2(C)[C@H]1CC[C@]2(O)C(=O)CO [PREDNISOLONE]
4. CCC1(CC)C(=O)NC(=O)N(C)C1=O [METHARBITAL]
5. CC(C)C[C@H](NC(=O)[C@H](Cc1ccccc1)NC(=O)c1cnccn1)B(O)O [BORTEZOMIB]

Response:
1: > 30 µM; 2: > 30 µM; 3: > 10 µM; 4: > 10 µM; 5: > 30 µM

Hi, could you look up AC50 for each item in my list?
1. COc1cc(N)cn[n+]1-c1ccccc1 [AMEZINIUM METILSULFATE]
2. COc1nc(C)nc(Cl)c1N=C1NCCN1 [MOXONIDINE]
3. CN1CC2c3ccccc3Oc3ccc(Cl)cc3C2C1 (stereo not given) [ASENAPINE]

Response:
1: > 30 µM; 2: > 30 µM; 3: 0.0013 µM

Each compound below has a recorded value; state its AC50.
1. C[C@H](CS)C(=O)N1CCC[C@H]1C(=O)O [CAPTOPRIL]
2. CCCCOC(=O)c1ccc(N)cc1 [BUTAMBEN]
3. C[C@H](Cn1cnc2c(N)ncnc21)OCP(=O)(O)O [TENOFOVIR ANHYDROUS]

Response:
> 10 µM
> 30 µM
> 30 µM

Consider the following items and state reported AC50 for each.
1. CCOc1ccccc1OCCN[C@H](C)Cc1ccc(OC)c(S(N)(=O)=O)c1 [TAMSULOSIN]
2. CC(C)(N)Cc1ccccc1 [PHENTERMINE]
3. Cc1cccc(Nc2ccncc2S(=O)(=O)NC(=O)NC(C)C)c1 [TORSEMIDE]

Response:
["6.4 µM", "> 10 µM", "> 10 µM"]
